REPORTED CONDITIONS: human
Reported Lag time is given for each of the following compounds.

Previously resolved entries follow.
{"COMPOUND": "CO[C@]12CC[C@@]3(C[C@@H]1[C@](C)(O)C(C)(C)C)[C@H]1Cc4ccc(O)c5c4[C@@]3(CCN1CC1CC1)[C@H]2O5 [BUP, buprenorphine, reference compound]", "ENDPOINT VALUE": "9.2 ± 2.0 h"}
{"COMPOUND": "CCOCCOCCOC(=O)Oc1ccc2c3c1O[C@H]1[C@@]4(OC)CC[C@@]5(C[C@@H]4[C@](C)(O)C(C)(C)C)[C@@H](C2)N(CC2CC2)CC[C@]315 [Formula I, Buprenorphine 3,6-dioxaoctyl carbonate]", "ENDPOINT VALUE": "7.7 ± 1.7 h"}

q: Annotate the compound CCOCCOCCOCCOCCOC(=O)Oc1ccc2c3c1O[C@H]1[C@@]4(OC)CC[C@@]5(C[C@@H]4[C@](C)(O)C(C)(C)C)[C@@H](C2)N(CC2CC2)CC[C@]315 with its measured Lag time.
a: 7.4 ± 4.7 h

q: Please look at this compound and report its Lag time: CCOCCOCCOCCOC(=O)Oc1ccc2c3c1O[C@H]1[C@@]4(OC)CC[C@@]5(C[C@@H]4[C@](C)(O)C(C)(C)C)[C@@H](C2)N(CC2CC2)CC[C@]315
a: 8.7 ± 0.6 h
